- measured.target: T1, human IL-18BP (human, UniProt O95998 31-194)
- T1 construct: UniProt printed as 095998; also called hIL-18BP
- T1 sequence: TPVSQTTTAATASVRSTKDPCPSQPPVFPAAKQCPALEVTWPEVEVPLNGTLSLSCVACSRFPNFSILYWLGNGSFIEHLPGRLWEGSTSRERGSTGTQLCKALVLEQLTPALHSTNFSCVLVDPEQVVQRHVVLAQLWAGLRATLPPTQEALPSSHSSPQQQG
- procedure.summary: BLI, apparent KD
Friendly reminder: Kd below 0.2 nM is condition met, at or above is condition not met.

INPUT: For SA301a LC-S93K (antibody, V domains shown) VH: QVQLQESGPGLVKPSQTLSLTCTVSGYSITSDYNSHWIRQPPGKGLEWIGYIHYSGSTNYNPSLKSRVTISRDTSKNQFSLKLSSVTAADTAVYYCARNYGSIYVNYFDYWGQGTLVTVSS VL: EIVLTQSPATLSLSPGERATLSCSASSSVSYMYWYQQKPGQAPRPLIYRTSNLASGIPARFSGSGSGTDFTLTISSLEPEDFAVYYCQQYHKYPTFGGGTKVEIK , is the recorded Kd below the cut-off of 0.2 nM?
OUTPUT: condition met

INPUT: For SA301a LC-Y94A (antibody, V domains shown) VH: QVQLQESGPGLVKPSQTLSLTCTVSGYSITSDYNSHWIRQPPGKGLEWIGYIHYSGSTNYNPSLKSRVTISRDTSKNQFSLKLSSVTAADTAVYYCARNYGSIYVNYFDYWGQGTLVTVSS VL: EIVLTQSPATLSLSPGERATLSCSASSSVSYMYWYQQKPGQAPRPLIYRTSNLASGIPARFSGSGSGTDFTLTISSLEPEDFAVYYCQQYHSAPTFGGGTKVEIK , is the recorded Kd below the cut-off of 0.2 nM?
OUTPUT: condition not met

INPUT: For SA301a LC-Q90L (antibody, name in Kabat numbering, V domains shown, IgG1 kappa) VH: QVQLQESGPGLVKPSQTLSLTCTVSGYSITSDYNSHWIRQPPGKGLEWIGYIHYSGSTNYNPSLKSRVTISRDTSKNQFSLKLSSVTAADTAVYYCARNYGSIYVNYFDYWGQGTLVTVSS VL: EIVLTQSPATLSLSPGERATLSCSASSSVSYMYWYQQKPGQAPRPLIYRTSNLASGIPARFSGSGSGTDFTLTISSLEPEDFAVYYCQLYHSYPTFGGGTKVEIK , is the recorded Kd below the cut-off of 0.2 nM?
OUTPUT: condition met

INPUT: For SA301a LC-Y91R (antibody, name in Kabat numbering, V domains shown, IgG1 kappa) VH: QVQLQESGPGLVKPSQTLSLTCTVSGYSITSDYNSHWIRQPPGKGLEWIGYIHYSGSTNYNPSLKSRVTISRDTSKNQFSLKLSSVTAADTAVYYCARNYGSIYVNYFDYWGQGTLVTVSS VL: EIVLTQSPATLSLSPGERATLSCSASSSVSYMYWYQQKPGQAPRPLIYRTSNLASGIPARFSGSGSGTDFTLTISSLEPEDFAVYYCQQRHSYPTFGGGTKVEIK , is the recorded Kd below the cut-off of 0.2 nM?
OUTPUT: condition met

INPUT: For SA301a LC-Y91Q (antibody, name in Kabat numbering, V domains shown, IgG1 kappa) VH: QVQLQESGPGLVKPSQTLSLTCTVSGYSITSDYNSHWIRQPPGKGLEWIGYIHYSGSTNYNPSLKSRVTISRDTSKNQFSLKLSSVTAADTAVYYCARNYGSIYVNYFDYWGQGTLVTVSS VL: EIVLTQSPATLSLSPGERATLSCSASSSVSYMYWYQQKPGQAPRPLIYRTSNLASGIPARFSGSGSGTDFTLTISSLEPEDFAVYYCQQQHSYPTFGGGTKVEIK , is the recorded Kd below the cut-off of 0.2 nM?
OUTPUT: condition not met
